- target_system: CDK1-NanoLuc fusion with CCNB1 in 293T or 293 cells (Homo sapiens)
- Construct: host or cells: 293T (ATCC CRL-3216) or 293 (ATCC CRL-1573)
- Sequence (P06493 whole entry, the tested form may be a part): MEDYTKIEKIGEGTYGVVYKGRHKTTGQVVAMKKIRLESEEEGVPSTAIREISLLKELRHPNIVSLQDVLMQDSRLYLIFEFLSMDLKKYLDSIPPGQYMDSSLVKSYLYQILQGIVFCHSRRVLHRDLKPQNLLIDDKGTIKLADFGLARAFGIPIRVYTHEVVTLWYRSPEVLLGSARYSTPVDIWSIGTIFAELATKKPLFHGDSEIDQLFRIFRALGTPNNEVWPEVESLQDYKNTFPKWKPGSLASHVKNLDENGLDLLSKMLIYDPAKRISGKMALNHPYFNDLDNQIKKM
- Sequence (P14635 whole entry partner, the tested form may be a part): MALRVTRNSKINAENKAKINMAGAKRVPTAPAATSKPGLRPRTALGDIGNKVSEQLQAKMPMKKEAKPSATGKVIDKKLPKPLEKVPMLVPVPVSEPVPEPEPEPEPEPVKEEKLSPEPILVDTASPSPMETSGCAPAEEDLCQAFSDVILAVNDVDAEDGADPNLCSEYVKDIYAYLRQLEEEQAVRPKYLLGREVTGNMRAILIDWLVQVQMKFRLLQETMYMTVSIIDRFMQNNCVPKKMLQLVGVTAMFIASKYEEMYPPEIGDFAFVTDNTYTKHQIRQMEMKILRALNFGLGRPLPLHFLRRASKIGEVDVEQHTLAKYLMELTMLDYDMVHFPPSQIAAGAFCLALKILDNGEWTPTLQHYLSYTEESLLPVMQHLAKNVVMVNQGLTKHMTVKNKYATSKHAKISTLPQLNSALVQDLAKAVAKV
- assay_protocol: NanoBRET Target Engagement (TE) Intracellular Kinase Assay, CDK1/CCNB1
- Type: cell-based
- conditions: NanoBRET TE intracellular kinase assay, 2-hour incubation, read-out: NanoBRET-CDK1/B1 IC50
pIC50: −log10 of the molar value.
criterion met means recorded pIC50 is 8 or above; criterion not met means it is below 8.

Quick check, pIC50 >= 8? COc1cc(OC)c2c(c1C=O)C[C@H](C(=O)Nc1cc([C@H]3C[C@@H](OC(=O)NC(C)C)C3)[nH]n1)C2 criterion not met

Record: Cc1cc(C(=O)Nc2cc([C@H]3CC[C@@H](OC(=O)NC(C)C)C3)[nH]n2)cc(C=O)c1O criterion not met

Record: CC(=O)Nc1cccc(OCC(=O)Nc2cc([C@H]3CC[C@@H](OC(=O)NC(C)C)C3)[nH]n2)c1C=O criterion not met

Record: CC(C)NC(=O)O[C@@H]1CC[C@H](c2cc(Nc3cc(COc4cccc(O)c4C=O)ccn3)n[nH]2)C1 criterion not met

Record: COc1cc(O)c(C=O)c(OCC(=O)Nc2cc([C@H]3CC[C@@H](OC(=O)N4CC[C@H](F)C4)C3)[nH]n2)c1 criterion met

Record: CCCN(C)C(=O)O[C@@H]1CC[C@H](c2cc(NC(=O)COc3cc(OC)cc(O)c3C=O)n[nH]2)C1 criterion met

###

- Test system: Phospho-Rb Ser807/811 in OVCAR3 cells
- assay_protocol: OVCAR3 Phospho-Rb Ser807/811 HTRF assay
- Type: cell-based
- conditions: Homo sapiens, OVCAR-3, 1 h, OVCAR3 cells, Phospho-Rb Ser807/811 HTRF, 1 hour incubation; read-out: pRb-OVCAR3 IC50
Label Fulfilled when IC50 < 200 nM; otherwise Not fulfilled.

In plain terms, does COc1cc(O)c(C=O)c(OCC(=O)Nc2cc([C@H]3CC[C@@H](OC(=O)NC(C)(C)C)C3)[nH]n2)c1 come in under 200 nM for IC50? Fulfilled

Record: CC(C)NC(=O)O[C@@H]1CC[C@H](c2cc(NC(=O)c3cc(-c4cc(F)cc(O)c4C=O)nn3C)n[nH]2)C1 Fulfilled

Record: COc1cc(O)c(C=O)c(OCC(=O)Nc2cc([C@H]3CC[C@@H](OC(=O)N4CC[C@H]4C#N)C3)[nH]n2)c1 (stereo in doubt) Fulfilled

Record: CC(C)NC(=O)O[C@@H]1CC[C@H](c2cc(NC(=O)OCc3cccc(O)c3C=O)n[nH]2)C1 Not fulfilled

Record: CC(C)NC(=O)O[C@@H]1CC[C@H](c2cc(NC(=O)[C@@H](C)Oc3cccc(O)c3C=O)n[nH]2)C1 Not fulfilled

Record: Cc1ccc(OCC(=O)Nc2cc([C@H]3CC[C@@H](OC(=O)NC(C)C)C3)[nH]n2)c(C=O)c1O Fulfilled

###

- target_system: CDK2-NanoLuc fusion with CCNE1 in 293T or 293 cells (Homo sapiens, UniProt P24941)
- Construct: host or cells: 293T (ATCC CRL-3216) or 293 (ATCC CRL-1573)
- assay_protocol: NanoBRET Target Engagement (TE) Intracellular Kinase Assay, CDK2/CCNE1
- Format: cell-based
- conditions: NanoBRET TE intracellular kinase assay, 2-hour incubation, read-out: NanoBRET-CDK2/E1 IC50
Please go through the items and note down their IC50.

Record request: IC50 value, item COc1cc(O)c(C=O)c(OCC(=O)Nc2cc([C@H]3CC[C@@H](OC(=O)N4C5CCC(C5)N4C)C3)[nH]n2)c1 (some centres unmarked) 2.2 nM

Record: C#C[C@H](C)NC(=O)O[C@@H]1CC[C@H](c2cc(NC(=O)COc3cc(OC)cc(O)c3C=O)n[nH]2)C1 4.44 nM

Record: COc1cc(O)c(C=O)c(OCC(=O)Nc2cc([C@H]3CC[C@@H](OC(=O)N4CC[C@H](C#N)C4)C3)[nH]n2)c1 7.62 nM

Record: COc1cc(O)c(C=O)c(OCC(=O)Nc2cc([C@H]3CC[C@@H](OC(=O)NC4(C)CCC4)C3)[nH]n2)c1 2.28 nM

Record: COc1cc(O)c(C=O)c(OCC(=O)Nc2cc([C@H]3CC[C@@H](OC(=O)N4C[C@H](F)[C@@H]4C)C3)[nH]n2)c1 1.99 nM

Record: O=Cc1c(O)cc(OC(F)F)cc1OCC(=O)Nc1cc([C@H]2CC[C@@H](OC(=O)N3C4COCC3C4)C2)[nH]n1 22 nM

Record: COc1cc(O)c(C=O)c(OCC(=O)Nc2cc([C@H]3CC[C@@H](OC(=O)N[C@@H](C)C(F)F)C3)[nH]n2)c1 3.26 nM

Record: CCCNC(=O)O[C@@H]1CC[C@H](c2cc(NC(=O)COc3cccc(O)c3C=O)n[nH]2)C1 2.3 nM

Record: Cc1ncc(Oc2cccc(O)c2C=O)nc1C(=O)Nc1cc([C@H]2CC[C@@H](OC(=O)NC(C)C)C2)[nH]n1 10.1 nM

Record: C#CC1(NC(=O)O[C@@H]2CC[C@H](c3cc(NC(=O)COc4cc(OC)cc(O)c4C=O)n[nH]3)C2)CC1 2.33 nM

Record: CNC(=O)O[C@@H]1CC[C@H](c2cc(NC(=O)c3cc(-c4cccc(O)c4C=O)nn3C)n[nH]2)C1 8.63 nM

Record: COc1cc(O)c(C=O)c2c1CC(C(=O)Nc1cc([C@H]3CC[C@@H](OC(=O)NN(C)C)C3)n[nH]1)C2 (single isomer, unassigned) [Compound 269] 67.7 nM

Record: COc1cc(O)c(C=O)c(OCC(=O)Nc2cc([C@H]3CC[C@@H](OC(=O)N4CC[C@H](F)C4)C3)[nH]n2)c1 2.47 nM

Record: COc1cc(O)c(C=O)c(OCC(=O)Nc2cc([C@H]3CC[C@@H](OC(=O)N4CCCC4(C)C)C3)[nH]n2)c1 2.23 nM

Record: COc1cc(O)c(C=O)c2c1CC(C(=O)Nc1cc([C@H]3CC[C@@H](OC(=O)N4CCCCN4C)C3)[nH]n1)C2 (single isomer, unassigned) [Compound 267] 21.8 nM

Record: CC(C)NC(=O)O[C@H]1C[C@@H](c2cc(NC(=O)COc3cccc(O)c3C=O)n[nH]2)C1 4.44 nM

Record: COc1cc(O)c(C=O)c(OCC(=O)Nc2cc([C@H]3CC[C@@H](OC(=O)NCCOC(F)F)C3)n[nH]2)c1 4.5 nM

Record: CC(C)NC(=O)O[C@@H]1CC[C@H](c2cc(NC(=O)COc3cc(OC(C)C)cc(O)c3C=O)n[nH]2)C1 1.86 nM

Record: C#CCN(CC)C(=O)O[C@@H]1CC[C@H](c2cc(NC(=O)COc3cc(OC)cc(O)c3C=O)n[nH]2)C1 2.36 nM

Record: CCCN(C)C(=O)O[C@@H]1CC[C@H](c2cc(NC(=O)COc3cc(OC)cc(O)c3C=O)n[nH]2)C1 2.49 nM

Record: COc1cc(O)c(C=O)c(OCC(=O)Nc2cc([C@H]3CC[C@@H](OC(=O)N4C[C@@H](F)[C@H](F)C4)C3)n[nH]2)c1 1.99 nM

Record: COc1cc(O)c(C=O)c2c1CC(C(=O)Nc1cc([C@H]3CC[C@@H](OC(=O)NN(C)C)C3)n[nH]1)C2 (single isomer, unassigned) [Compound 268] 10.8 nM

Record: CC(C)NC(=O)O[C@@H]1CC[C@H](c2cc(NC(=O)[C@@H](C)Oc3cccc(O)c3C=O)n[nH]2)C1 4.66 nM

Record: COc1cc(O)c(C=O)c(OCC(=O)Nc2cc([C@H]3CC[C@@H](OC(=O)NCCN(C)C)C3)[nH]n2)c1 337 nM

Record: CC1(NC(=O)O[C@@H]2CC[C@H](c3cc(NC(=O)CCc4cccc(O)c4C=O)n[nH]3)C2)CC1 10.9 nM

Record: COc1cc(OC)c(C=O)c(OCC(=O)Nc2cc([C@H]3CC[C@@H](OC(=O)NC(C)C)C3)[nH]n2)c1 1.43 nM

###

- System: Phospho-Rb Ser807/811 in OVCAR3 cells
- assay_protocol: OVCAR3 Phospho-Rb Ser807/811 HTRF assay
- Format: cell-based
- conditions: Homo sapiens, OVCAR-3, 1 h, OVCAR3 cells, Phospho-Rb Ser807/811 HTRF, 1 hour incubation; read-out: pRb-OVCAR3 IC50
parameter_measured: IC50 (nM)
Write the number in nM without appending the unit.

Record request: IC50 value, item CCN(C(=O)O[C@@H]1CC[C@H](c2cc(NC(=O)COc3cc(OC)cc(O)c3C=O)n[nH]2)C1)C(C)C [Compound 169] 22.9

Record: CC(C)NC(=O)O[C@@H]1CC[C@H](c2cc(NC(=O)c3cnc(-c4cccc(O)c4C=O)o3)n[nH]2)C1 [Compound 55] 1430

Record: COc1cc(O)c(C=O)c(OCC(=O)Nc2cc([C@H]3CC[C@@H](OC(=O)N4CC(C#N)C4)C3)[nH]n2)c1 [Compound 153] 49.7

Record: CC(C)NC(=O)O[C@@H]1CC[C@H](c2cc(NC(=O)c3cc(-c4cccc(NS(C)(=O)=O)c4C=O)nn3C)n[nH]2)C1 [Compound 41] 272

Record: CC(C)NC(=O)O[C@@H]1CC[C@H](c2cc(NC(=O)c3cc(-c4cccc(O)c4C=O)nn3C3CC3)n[nH]2)C1 [Compound 61] 477

Record: CC(C)NC(=O)O[C@@H]1CC[C@H](c2cc(NC(=O)[C@H]3C[C@H](c4cccc(O)c4C=O)C3)n[nH]2)C1 [Compound 107] 59.6

Record: COc1cc(O)c(C=O)c(OCC(=O)Nc2cc([C@H]3CC[C@@H](OC(=O)N4CCCO4)C3)[nH]n2)c1 [Compound 224] 93.6

Record: Cc1cc(O)c(C=O)c(OCC(=O)Nc2cc([C@H]3CC[C@@H](OC(=O)NC4(C)CC4)C3)[nH]n2)c1 [Compound 145] 64.3

Record: CNC(=O)O[C@@H]1CC[C@H](c2cc(NC(=O)c3cc(-c4cccc(O)c4C=O)nn3C)n[nH]2)C1 [Compound 50] 382

Record: COc1cc(O)c(C=O)c(OCC(=O)Nc2cc([C@H]3CC[C@@H](OC(=O)N4C[C@H]5C[C@@H]4CS5(=O)=O)C3)n[nH]2)c1 [Compound 118] 101

Record: O=Cc1c(O)cc(Cl)cc1OCC(=O)Nc1cc([C@H]2CC[C@@H](OC(=O)N3C4COCC3C4)C2)[nH]n1 [Compound 183] 140

Record: COc1cc(O)c(C=O)c(OCC(=O)Nc2cc([C@H]3CC[C@@H](OC(=O)NCC4CCC4)C3)[nH]n2)c1 [Compound 178] 54.1

Record: COc1cc(O)c(C=O)c(OCC(=O)Nc2cc([C@H]3CC[C@@H](OC(=O)N4CC[C@H](C#N)C4)C3)[nH]n2)c1 [Compound 152] 30

Record: COc1cc(O)c(C=O)c(OCC(=O)Nc2cc([C@H]3CC[C@@H](OC(=O)NC4(C)CCC4)C3)[nH]n2)c1 [Compound 254] 21.4

Record: COc1cc(O)c(C=O)c(OCC(=O)Nc2cc([C@H]3CC[C@@H](OC(=O)NC4(C#N)CC4)C3)[nH]n2)c1 [Compound 215] 41.5

Record: COc1cc(OC)c(C=O)c(OCC(=O)Nc2cc([C@H]3CC[C@@H](OC(=O)N4CCC4(C)C)C3)[nH]n2)c1 [Compound 227] 18.1

Record: CC(C)NC(=O)O[C@@H]1CC[C@H](c2cc(NC(=O)[C@H]3C[C@@H]3c3cccc(O)c3C=O)n[nH]2)C1 (single isomer, unassigned) [Compound 10] 67.6

Record: CC(C)NC(=O)O[C@@H]1CC[C@H](c2cc(NC(=O)Nc3ccc(O)c(C=O)c3)n[nH]2)C1 [Compound 33] 361

Record: COc1cc(O)c(C=O)c(OCC(=O)Nc2cc([C@H]3CC[C@@H](OC(=O)NC4(C)CC4(F)F)C3)[nH]n2)c1 (single isomer, unassigned) [Compound 280] 17.4

Record: CCN(CC)N(C)C(=O)O[C@@H]1CC[C@H](c2cc(NC(=O)COc3cc(OC)cc(O)c3C=O)n[nH]2)C1 [Compound 277] 25.6

Record: COc1cc(O)c(C=O)c(OCC(=O)Nc2cc([C@H]3CC[C@@H](OC(=O)N4CCN(C)CC4)C3)[nH]n2)c1 [Compound 195] 37.8

Record: COc1cc(O)c(C=O)c(OCC(=O)Nc2cc([C@H]3CC[C@@H](OC(=O)N4C[C@H](F)C[C@@H]4C)C3)n[nH]2)c1 [Compound 125] 53.4

Record: COc1cc(O)c(C=O)c(OCC(=O)Nc2cc([C@H]3CC[C@@H](OC(=O)N4C[C@@H]5C[C@H]4CO5)C3)[nH]n2)c1 [Compound 204] 34.6

Record: COc1cc(O)c(C=O)c(OCC(=O)Nc2cc([C@H]3CC[C@@H](OC(=O)N4[C@H](C)C[C@@H]4C)C3)[nH]n2)c1 [Compound 123] 27

Record: C#C[C@H](C)NC(=O)O[C@@H]1CC[C@H](c2cc(NC(=O)COc3cc(OC)cc(O)c3C=O)n[nH]2)C1 [Compound 216] 64.6

Record: COc1ccc(OCC(=O)Nc2cc([C@H]3CC[C@@H](OC(=O)NC(C)C)C3)[nH]n2)c(C=O)c1O [Compound 80] 132
